Each recorded value in this set is attributed to ChEMBL document CHEMBL1139167.

ASSAY_SUMMARY: Toxicity assessed as inhibition of cell viability of UVB irradiated human HaCaT cells at 10 uM administered 2 hrs before irradiation by MTT assay
Format: cell-based
REPORTED_CONDITIONS: read-out: Inhibition
MEASURED_PROPERTY: cytotoxicity at 2 h, 10 µM (%)

- COMPOUND: "CC1=CCC[C@H]2[C@](C)(Cc3cc(O)cc(Sc4ccc(C)cc4)c3O)[C@@H](C)CC[C@]12C"
  OBSERVED_RESULT: 0
- COMPOUND: "CC1=CCC[C@H]2[C@](C)(Cc3cc(O)c(Sc4ccccc4)cc3O)[C@@H](C)CC[C@]12C"
  OBSERVED_RESULT: 0
- COMPOUND: "CC1=CCC[C@H]2[C@](C)(Cc3cc(O)c(SCCO)c(SCCO)c3O)[C@@H](C)CC[C@]12C"
  OBSERVED_RESULT: 28.5
- COMPOUND: "CC1=CCC[C@H]2[C@](C)(Cc3cc(O)c(SCC(=O)O)cc3O)[C@@H](C)CC[C@]12C"
  OBSERVED_RESULT: 13.3
- COMPOUND: "CC1=CCC[C@H]2[C@](C)(Cc3cc(O)c(Sc4ccccc4)c(Sc4ccccc4)c3O)[C@@H](C)CC[C@]12C"
  OBSERVED_RESULT: 0
- COMPOUND: "CC1=CCC[C@H]2[C@](C)(Cc3cc(O)cc(Sc4ccccc4)c3O)[C@@H](C)CC[C@]12C"
  OBSERVED_RESULT: 0
- COMPOUND: "CC1=CCC[C@H]2[C@](C)(Cc3cc(O)c(SCC(O)CO)cc3O)[C@@H](C)CC[C@]12C (stereo partly drawn)"
  OBSERVED_RESULT: 18.6
- COMPOUND: "COc1cc2ccc(=O)oc2c(O)c1O [FRAXETIN]"
  OBSERVED_RESULT: 3.4
